Attribution: patent US4800199A

Here's what we have: MIC numbers for Staphylococcus aureus SSC 82-24.

| molecule | systemTested | MIC |
| --- | --- | --- |
| CC(=O)OCC1=C(C(=O)O)N2C(=O)[C@@H](Nc3nc(C)cs3)[C@H]2SC1 [Example 12] | Staphylococcus aureus SSC 82-24 | 64 µg/mL |
| CC(=O)OCC1=C(C(=O)O)N2C(=O)[C@@H](Nc3nc(C(=O)NCc4ccccc4)cs3)[C@H]2SC1 [Example 11] | Staphylococcus aureus SSC 82-24 | > 128 µg/mL |
| CC(=O)OCC1=C(C(=O)O)N2C(=O)[C@@H](Nc3nc(C(=O)OCC(Cl)(Cl)Cl)cs3)[C@H]2SC1 [Example 9] | Staphylococcus aureus SSC 82-24 | > 128 µg/mL |
| CC(=O)OCC1=C(C(=O)O)N2C(=O)[C@@H](Nc3nc(C(=O)O)cs3)[C@H]2SC1 [Example 7] | Staphylococcus aureus SSC 82-24 | > 128 µg/mL |

====

List of MIC tested on Bacillus subtilis ATCC 6633.
testReadout: MIC (µg/mL)

| molSmiles | testReadout | quantitativeReadout |
| --- | --- | --- |
| CCOC(=O)c1csc(N[C@@H]2C(=O)N3C(C(=O)O)=C(COC(C)=O)CS[C@H]23)n1 | MIC | 4 |
| CC(=O)OCC1=C(C(=O)O)N2C(=O)[C@@H](Nc3nc(C)cs3)[C@H]2SC1 | MIC | 1 |
| CC(=O)OCC1=C(C(=O)O)N2C(=O)[C@@H](Nc3nc(C(=O)NCc4ccccc4)cs3)[C@H]2SC1 | MIC | 8 |
| CC(=O)OCC1=C(C(=O)O)N2C(=O)[C@@H](Nc3nc(C(=O)O)cs3)[C@H]2SC1 | MIC | 8 |
| CC(=O)OCC1=C(C(=O)O)N2C(=O)[C@@H](Nc3nc(-c4ccccc4)cs3)[C@H]2SC1 | MIC | 8 |
| CC(=O)OCC1=C(C(=O)O)N2C(=O)[C@@H](Nc3nc(C(=O)OCC(Cl)(Cl)Cl)cs3)[C@H]2SC1 | MIC | 0.5 |

====

# Tested on: Streptococcus faecalis ATCC 29212
Entries and their MIC

| molSmiles | valuePrefix | MIC / µg/mL |
| --- | --- | --- |
| CC(=O)OCC1=C(C(=O)O)N2C(=O)[C@@H](Nc3nc(-c4ccccc4)cs3)[C@H]2SC1 | = | 256 |
| CCOC(=O)c1csc(N[C@@H]2C(=O)N3C(C(=O)O)=C(COC(C)=O)CS[C@H]23)n1 | = | 128 |
| CC(=O)OCC1=C(C(=O)O)N2C(=O)[C@@H](Nc3nc(C(=O)NCc4ccccc4)cs3)[C@H]2SC1 | > | 128 |
| CC(=O)OCC1=C(C(=O)O)N2C(=O)[C@@H](Nc3nc(C(=O)OCC(Cl)(Cl)Cl)cs3)[C@H]2SC1 | = | 16 |
| CC(=O)OCC1=C(C(=O)O)N2C(=O)[C@@H](Nc3nc(C(=O)O)cs3)[C@H]2SC1 | > | 128 |
| CC(=O)OCC1=C(C(=O)O)N2C(=O)[C@@H](Nc3nc(C)cs3)[C@H]2SC1 | = | 128 |

====

MIC values, listed per item
# Tested on: Staphylococcus aureus ATCC 25923

| molSmiles | systemTested | MIC, mg/L |
| --- | --- | --- |
| CC(=O)OCC1=C(C(=O)O)N2C(=O)[C@@H](Nc3nc(C(=O)NCc4ccccc4)cs3)[C@H]2SC1 | Staphylococcus aureus ATCC 25923 | 4 |
| CC(=O)OCC1=C(C(=O)O)N2C(=O)[C@@H](Nc3nc(C(=O)O)cs3)[C@H]2SC1 | Staphylococcus aureus ATCC 25923 | 8 |
| CC(=O)OCC1=C(C(=O)O)N2C(=O)[C@@H](Nc3nc(C(=O)OCC(Cl)(Cl)Cl)cs3)[C@H]2SC1 | Staphylococcus aureus ATCC 25923 | 0.12 |
| CC(=O)OCC1=C(C(=O)O)N2C(=O)[C@@H](Nc3nc(C)cs3)[C@H]2SC1 | Staphylococcus aureus ATCC 25923 | 4 |
| CCOC(=O)c1csc(N[C@@H]2C(=O)N3C(C(=O)O)=C(COC(C)=O)CS[C@H]23)n1 | Staphylococcus aureus ATCC 25923 | 1 |
| CC(=O)OCC1=C(C(=O)O)N2C(=O)[C@@H](Nc3nc(-c4ccccc4)cs3)[C@H]2SC1 | Staphylococcus aureus ATCC 25923 | 8 |

====

Parameter MIC, tested on Escherichia coli ATCC 25922, listed per item.

| molSmiles | MIC |
| --- | --- |
| CC(=O)OCC1=C(C(=O)O)N2C(=O)[C@@H](Nc3nc(C(=O)OCC(Cl)(Cl)Cl)cs3)[C@H]2SC1 | > 128 µg/mL |
| CCOC(=O)c1csc(N[C@@H]2C(=O)N3C(C(=O)O)=C(COC(C)=O)CS[C@H]23)n1 | > 512 µg/mL |
| CC(=O)OCC1=C(C(=O)O)N2C(=O)[C@@H](Nc3nc(C(=O)O)cs3)[C@H]2SC1 | > 128 µg/mL |
| CC(=O)OCC1=C(C(=O)O)N2C(=O)[C@@H](Nc3nc(-c4ccccc4)cs3)[C@H]2SC1 | > 512 µg/mL |
| CC(=O)OCC1=C(C(=O)O)N2C(=O)[C@@H](Nc3nc(C)cs3)[C@H]2SC1 | > 128 µg/mL |
| CC(=O)OCC1=C(C(=O)O)N2C(=O)[C@@H](Nc3nc(C(=O)NCc4ccccc4)cs3)[C@H]2SC1 | > 128 µg/mL |
